Tested on: NF-κB
Test: NF-κB inhibitor screen: basal NF-κB-dependent luciferase expression in HEK/NF-κB cell line
Format: cell-based
Details: 1 uM; determined as described in Example 398; read-out: NFkB inhibition @ 1 uM
Here, each record is paired with measured inhibition at 1 µM data.
Numbers only here, please. The scale is %.

Query: So what's the measured inhibition at 1 µM for this one? COC(=O)Nc1nc(-c2ccccc2)c(-c2nc3ccccc3c(=O)n2-c2ccccc2Cl)s1
Result: 55

Query: Endpoint output: inhibition at 1 µM of CNc1nc(-c2ccccc2)c(-c2nc3ccccc3c(=O)n2-c2ccccc2OC)s1 . Value?
Result: 61

Query: Tell me the measured inhibition at 1 µM of COC(=O)Nc1nc(-c2ccccc2)c(-c2nc3ccccc3c(=O)n2-c2ccccc2C)s1 , please.
Result: 0

Query: Name the recorded inhibition at 1 µM for CC(=O)c1ccc(-n2c(-c3sc(NC(=O)c4ccc(C)cc4)nc3-c3ccccc3)nc3ccccc3c2=O)cc1 .
Result: 27

Query: May I ask what inhibition at 1 µM has been recorded for Cc1ccc(-n2c(-c3sc(Nc4ccccc4)nc3-c3ccccc3)nc3ccccc3c2=O)cc1 ?
Result: 38

Query: What measured inhibition at 1 µM goes with CNc1nc(C)c(-c2nc3ccccc3c(=O)n2-c2ccc(Cl)cc2)s1 ?
Result: 93

Query: Which measured inhibition at 1 µM value corresponds to COc1ccc(-n2c(-c3sc(NC(=O)c4ccccc4)nc3-c3ccccc3)nc3ccccc3c2=O)cc1 ?
Result: 15

Query: Given CNc1nc(-c2ccccc2)c(-c2nc3ccccc3c(=O)n2-c2ccc(C(C)=O)cc2)s1 , state its recorded inhibition at 1 µM.
Result: 4

Query: Dear colleague, I am looking for the recorded inhibition at 1 µM of the following compound: O=c1c2ccccc2nc(-c2sc(Nc3ccccc3)nc2-c2ccccc2)n1-c1ccc(Cl)cc1
Result: 80

Query: State the recorded inhibition at 1 µM for this entry: CC(=O)c1ccc(-n2c(-c3sc(NC(=O)c4ccccc4)nc3-c3ccccc3)nc3ccccc3c2=O)cc1
Result: 18

// next entry
Query: inhibition at 1 µM for CCOC(=O)Nc1nc(-c2ccccc2)c(-c2nc3ccccc3c(=O)n2-c2ccc(OC)cc2)s1 ?
Result: 22

---

Tested on: cell lines from the skin, one tumorigenic and one non-tumorigenic
Assay: MTT viability in skin cell line pair, tumorigenic and non-tumorigenic
Type: cell-based
Conditions: 10 μM, 48 h, MTT; tumorigenic vs non-tumorigenic line
readout.name: Differential Toxicity* Skin

Query: What does the data say about its Differential Toxicity* Skin? Entry: Cc1ccccc1-n1c(-c2sc(Nc3ccccc3)nc2C)nc2ccccc2c1=O
Result: Neither

Query: Which Differential Toxicity* Skin reading was recorded for the compound CNc1nc(-c2ccccc2)c(-c2nc3ccccc3c(=O)n2-c2ccccc2OC)s1 ?
Result: Both

Query: I would be grateful if you could share the reported Differential Toxicity* Skin for CC(=O)c1ccc(-n2c(-c3cc(-c4ccncc4)c(N4CCOCC4)s3)nc3ccccc3c2=O)cc1 .
Result: Neither

---

System: AP-1
Test: PMA-induced AP-1 luciferase expression in HEK cells
Assay type: cell-based
Details: four lead compounds, Table 13
# AP-1 % inhibition per entry
I only need the number, in %, no unit after it.

Query: Which AP-1 % inhibition is reported for this compound? CC(=O)c1ccc(-n2c(-c3cc(-c4ccncc4)c(N4CCOCC4)s3)nc3ccccc3c2=O)cc1
Result: 84

Query: AP-1 % inhibition lookup needed for Cc1nc(Nc2ccc(Cl)cc2)sc1-c1nc2ccccc2c(=O)n1-c1ccccc1Cl , thanks.
Result: 27

Query: Any idea what its AP-1 % inhibition is? The compound is CNc1nc(-c2ccccc2)c(-c2nc3ccccc3c(=O)n2-c2ccccc2OC)s1
Result: 90

Query: Would you kindly share the measured AP-1 % inhibition for Cc1ccccc1-n1c(-c2sc(Nc3ccccc3)nc2C)nc2ccccc2c1=O ?
Result: 73

---

Some compounds, each annotated with its measured Cell Death (EthHD) % Increase HPT.
System: human proximal tubule (HPT) cells
Assay: Ethidium homodimer (EthHD) uptake toxicity assay in HPT cells
Format: cell-based
Details: 10 μM, 48 h, relative to vehicle
Marks after values point to notes of the source that are not given here.

Query: Please look up its Cell Death (EthHD) % Increase HPT: COc1ccccc1-n1c(-c2cc(-c3ccc(S(C)(=O)=O)cc3)c(N3CCOCC3)s2)nc2ccccc2c1=O
Result: 207# %

Query: Fill in the blank: the reported Cell Death (EthHD) % Increase HPT of CCOC(=O)Nc1nc(-c2ccccc2)c(-c2nc3ccccc3c(=O)n2-c2ccccc2C)s1 is ____.
Result: 34# %

Query: Cell Death (EthHD) % Increase HPT lookup needed for CNc1nc(-c2ccccc2)c(-c2nc3ccccc3c(=O)n2-c2ccccc2OC)s1 , thanks.
Result: 4%

Query: Using the record for Cc1ccccc1-n1c(-c2sc(Nc3ccccc3)nc2C)nc2ccccc2c1=O , report its Cell Death (EthHD) % Increase HPT.
Result: 109# %

Query: Report Cell Death (EthHD) % Increase HPT for CNc1nc(C)c(-c2nc3ccccc3c(=O)n2-c2ccccc2C)s1 please.
Result: 63# %

Query: What Cell Death (EthHD) % Increase HPT value was documented for this compound, COc1ccccc1-n1c(-c2cc(-c3ccncc3)c(N3CCOCC3)s2)nc2ccccc2c1=O ?
Result: 147# %

---

System: cell lines from the prostate, one tumorigenic and one non-tumorigenic
Assay: MTT viability in prostate cell line pair, tumorigenic and non-tumorigenic
Type: cell-based
Details: 10 μM, 48 h, tumorigenic vs non-tumorigenic line
readout.name: Differential Toxicity* Prostate

Query: Item under review: CC(=O)c1ccc(-n2c(-c3cc(-c4ccncc4)c(N4CCOCC4)s3)nc3ccccc3c2=O)cc1 . Reported Differential Toxicity* Prostate?
Result: Cancer

Query: Quick one: Differential Toxicity* Prostate for Cc1nc(Nc2ccc(Cl)cc2)sc1-c1nc2ccccc2c(=O)n1-c1ccccc1Cl ?
Result: Both

Query: I have this compound here, Cc1ccccc1-n1c(-c2sc(Nc3ccccc3)nc2C)nc2ccccc2c1=O , and I need its recorded Differential Toxicity* Prostate.
Result: Cancer

---

Test system: Human umbilical vein endothelial cells (HUVEC)
Assay: Trypan blue viability count in HUVEC
Assay type: cell-based
Conditions: HUVEC, 10 μM, 48 h, relative to vehicle
Marks after values point to notes of the source that are not given here.
Reported Viable Cells % Decrease HUVEC values are given for each entry in this list.

Past entries and their recorded results:
Query: What value of Viable Cells % Decrease HUVEC has been reported for the following compound? CC(=O)c1ccc(-n2c(-c3cc(-c4ccncc4)c(N4CCOCC4)s3)nc3ccccc3c2=O)cc1
Result: 60# %

Query: Any idea what its Viable Cells % Decrease HUVEC is? The compound is CNc1nc(-c2ccccc2)c(-c2nc3ccccc3c(=O)n2-c2ccccc2OC)s1
Result: 41# %

Query: Quick check: Viable Cells % Decrease HUVEC of COc1ccccc1-n1c(-c2cc(-c3ccc(S(C)(=O)=O)cc3)c(N3CCOCC3)s2)nc2ccccc2c1=O ?
Result: 65# %

Query: Query (compound): CCOC(=O)Nc1nc(-c2ccccc2)c(-c2nc3ccccc3c(=O)n2-c2ccccc2C)s1 ; field requested: Viable Cells % Decrease HUVEC
Result: 40# %

Query: Name the reported Viable Cells % Decrease HUVEC value associated with the compound O=c1c2ccccc2nc(-c2cc(-c3ccncc3)c(N3CCOCC3)s2)n1-c1ccccc1Cl
Result: 43# %

Others:
Query: # input compound: COc1ccc(-n2c(-c3cc(-c4ccc(S(C)(=O)=O)cc4)c(N4CCOCC4)s3)nc3ccccc3c2=O)cc1 ; wanted: its Viable Cells % Decrease HUVEC
Result: −1%

Query: Which Viable Cells % Decrease HUVEC is listed for Cc1cccc(-n2c(-c3sc(NC(=O)c4ccccc4)nc3-c3ccccc3)nc3ccccc3c2=O)c1 ?
Result: 41# %

Query: Report Viable Cells % Decrease HUVEC for COC(=O)Nc1nc(-c2ccccc2)c(-c2nc3ccccc3c(=O)n2-c2ccccc2Cl)s1 please.
Result: 32# %

Query: Viable Cells % Decrease HUVEC; subject: O=c1c2ccccc2nc(-c2cc(-c3ccncc3)c(N3CCOCC3)s2)n1-c1ccc(Cl)cc1
Result: 60# %

Query: Form field: reported Viable Cells % Decrease HUVEC of Cc1ccccc1-n1c(-c2sc(Nc3ccccc3)nc2C)nc2ccccc2c1=O
Result: 28# %

Query: I have this compound here, CNc1nc(C)c(-c2nc3ccccc3c(=O)n2-c2ccccc2C)s1 , and I need its recorded Viable Cells % Decrease HUVEC.
Result: 20%

---

Tested on: cell lines from the skin, one tumorigenic and one non-tumorigenic
Test: MTT viability in skin cell line pair, tumorigenic and non-tumorigenic
Format: cell-based
# Lookup of reported Viability (MTT) % Decrease SRB12-p9 keyed by entry
Express it in %; write the number only.

Here's what some known entries look like.
Query: Look at this compound and give its reported Viability (MTT) % Decrease SRB12-p9. CNc1nc(C)c(-c2nc3ccccc3c(=O)n2-c2ccccc2C)s1
Result: 21

Query: Look up Viability (MTT) % Decrease SRB12-p9: COc1ccc(-n2c(-c3cc(-c4ccc(S(C)(=O)=O)cc4)c(N4CCOCC4)s3)nc3ccccc3c2=O)cc1
Result: 16

Query: Could you share which Viability (MTT) % Decrease SRB12-p9 value was measured for COC(=O)Nc1nc(-c2ccccc2)c(-c2nc3ccccc3c(=O)n2-c2ccccc2Cl)s1 ?
Result: 11

Continuing:
Query: Could you tell me which Viability (MTT) % Decrease SRB12-p9 is on file for COc1ccccc1-n1c(-c2cc(-c3ccc(S(C)(=O)=O)cc3)c(N3CCOCC3)s2)nc2ccccc2c1=O ?
Result: 12

Query: # Viability (MTT) % Decrease SRB12-p9 lookup, item CC(=O)c1ccc(-n2c(-c3cc(-c4ccncc4)c(N4CCOCC4)s3)nc3ccccc3c2=O)cc1
Result: 14

Query: Any idea what Viability (MTT) % Decrease SRB12-p9 was measured for Cc1cccc(-n2c(-c3sc(NC(=O)c4ccccc4)nc3-c3ccccc3)nc3ccccc3c2=O)c1 ?
Result: 20

Query: I would be grateful if you could share the reported Viability (MTT) % Decrease SRB12-p9 for Cc1ccccc1-n1c(-c2cc(-c3ccncc3)c(N3CCOCC3)s2)nc2ccccc2c1=O .
Result: 0

Cited source: patent US8829014B2
